The reported measurements were obtained from patent US20190071416A1.

Test target: SMYD3 (Homo sapiens)
Assay details: SMYD3 biochemical assay (MTase-Glo, MAP3K2 peptide substrate)
Test settings: Table 3; MTase assay, MAP3K2 peptide substrate; read-out: IC50
Measured parameter: IC50 (nM)

{"Compound": "CCCOC(=O)N1CCN(C(=O)c2ccc3c(Cl)cc(-c4ccc(CN(C)C)s4)nc3c2)CC1 [B126]", "IC50 [nM]": 89}
{"Compound": "CCCOC(=O)N1CCN(C(=O)c2ccc3c(Cl)c(C)c(-c4cccc(OC)c4)nc3c2)CC1 [B029]", "IC50 [nM]": 1400}
{"Compound": "CCCOC(=O)N1CCN(C(=O)c2ccc3c(Cl)cc(-c4ccn(C)c4)nc3c2)[C@@H](C)C1 [B194]", "IC50 [nM]": 130}

a: CCCOC(=O)N1CCN(C(=O)c2ccc3c(Cl)cc(-c4ccc(OC)cc4)nc3c2)C[C@H]1C [B045]
b: CCCOC(=O)N1CCN(C(=O)c2ccc3c(Cl)cc(-c4cc[nH]n4)nc3c2)CC1 [B138]
For the two items a and b , which reports the higher IC50 value? Output the label that corresponds to your choice.
b

1: CCCOC(=O)N1CCN(C(=O)c2ccc3c(Cl)c4c(nc3c2)CCC(Cc2noc(C)n2)C4)CC1 (centres unmarked) [A089]
2: CCCOC(=O)N1CCN(C(=O)c2ccc3c(Cl)c4c(nc3c2)CCC(C)C4)CC1 (centres unmarked) [A008]
For the two items 1 and 2 , which reports the higher IC50 value? Output the label that corresponds to your choice.
2

----------
Test system: HCT-116
Assay details: Cell proliferation assay (CellTiter-Glo), HCT-116
Assay type: cell-based
Test settings: Homo sapiens, HCT-116, 72 h; 3 days
Measured parameter: GI50 (µM)

A: CCCOC(=O)N1CCN(C(=O)c2ccc3c(Cl)cc(-c4ccccc4)nc3c2)C[C@H]1C
B: CCCOC(=O)N1CCN(C(=O)c2ccc3c(Cl)c4c(nc3c2)CC(c2ccccn2)CC4)C[C@H]1C (stereo partly shown)
For the two items A and B , which reports the higher GI50 value? Output the label that corresponds to your choice.
A

A: CCCOC(=O)N1CCN(C(=O)c2ccc3c(Cl)c4c(nc3c2)CC(CCN)CC4)[C@@H](C)C1 (stereo partly shown)
B: CCCOC(=O)N1CCN(C(=O)c2ccc3c(Cl)c4c(nc3c2)CCC(CCN)C4)CC1 (stereo not shown)
For the two items A and B , which reports the higher GI50 value? Output the label that corresponds to your choice.
B

----------
Test target: SMYD3 (Homo sapiens, UniProt Q9H7B4)
Assay details: SMYD3 biochemical assay (MTase-Glo, MAP3K2 peptide substrate)
Test settings: Table 3; MTase assay, MAP3K2 peptide substrate; read-out: IC50
Method: A SMYD3 enzymatic assay was developed using Promega's Methyltransferase-Glo™ reagents. In the assay, SMYD3 catalyzes the methylation of the MAP3K2 peptide substrate by transferring a methyl group from SAM to MAP3K2 peptide and further converts the SAM to SAH. The SMYD3 methyltransferase activity is measured based on the amount of SAH produced from the reaction through the use of coupling enzymes that convert the SAH to ATP. […]
Measured parameter: IC50 (nM)

Here's what some known entries look like.
{"Compound": "CCCOC(=O)N1CCN(C(=O)c2ccc3c(Cl)cc(-c4cnc5cccnc5c4)nc3c2)C[C@@H]1C [B188]", "Measured parameter": "IC50", "Reported measurement": 890}
{"Compound": "CCCOC(=O)N1CCN(C(=O)c2ccc3c(Cl)c(C)c(-c4ccc(OC)cc4)nc3c2)[C@@H](C)C1 [B026]", "Measured parameter": "IC50", "Reported measurement": 270}
{"Compound": "CCCOC(=O)N1CCN(C(=O)c2ccc3c(Cl)c4c(nc3c2)CCCC4)CC12CC2 [A036]", "Measured parameter": "IC50", "Reported measurement": 6700}

I: CCCOC(=O)N1CCN(C(=O)c2ccc3c(Cl)c4c(nc3c2)CC(c2ccncc2)CC4)[C@H](C)C1 (stereo partly shown) [A093]
II: CCCOC(=O)N1CCN(C(=O)c2ccc3c(Cl)c4c(nc3c2)CC(CCN(C)C)CC4)C[C@@H]1C (stereo partly shown) [A136]
For the two items I and II , which reports the higher IC50 value? Output the label that corresponds to your choice.
I
(I: 100 nM, II: 69 nM)

I: CCCOC(=O)N1CCN(C(=O)c2ccc3c(Cl)c4c(nc3c2)CC(c2ncccc2C)CC4)[C@H](C)C1 (stereo partly shown) [A109]
II: CCCOC(=O)N1CCN(C(=O)c2ccc3c(Cl)c4c(nc3c2)CCCC4C)CC1 (stereo not shown) [A023]
III: Cn1ccc(-c2cc(Cl)c3ccc(C(=O)N4CCN(C(=O)c5cn(C6CC6)nn5)CC4)cc3n2)c1 [D003]
IV: CCCOC(=O)N1CCN(C(=O)c2ccc3c(Cl)cc(-c4ccc5nc(C)sc5c4)nc3c2)CC1 [B208]
Which order do these items take when sorted by rising IC50? List them. Put the labels in the requested order and write them down.
III, IV, I, II

----------
Test target: SMYD3 (Homo sapiens)
Sequence (Q9H7B4 1-428): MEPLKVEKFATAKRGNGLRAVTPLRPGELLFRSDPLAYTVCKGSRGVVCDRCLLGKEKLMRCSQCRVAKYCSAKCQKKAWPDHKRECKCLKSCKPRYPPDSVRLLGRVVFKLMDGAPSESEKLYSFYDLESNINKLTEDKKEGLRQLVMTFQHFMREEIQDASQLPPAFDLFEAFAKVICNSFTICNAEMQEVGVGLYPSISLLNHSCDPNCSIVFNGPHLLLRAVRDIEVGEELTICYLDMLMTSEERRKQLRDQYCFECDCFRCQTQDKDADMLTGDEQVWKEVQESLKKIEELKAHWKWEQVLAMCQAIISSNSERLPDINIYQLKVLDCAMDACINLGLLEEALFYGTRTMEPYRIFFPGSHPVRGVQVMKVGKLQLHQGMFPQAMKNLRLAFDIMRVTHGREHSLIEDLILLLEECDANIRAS
Assay details: SMYD3 biochemical assay (MTase-Glo, MAP3K2 peptide substrate)
Test settings: read-out: active against SMYD3
Measured parameter: IC50 (µM)
Value expressed in µM; do not type the unit.

Give the measured IC50 of CCOC(=O)N1CCN(C(=O)c2ccc3c(Cl)c4c(nc3c2)CCCC4)CC1 [X4, reference compound] .
6.2

----------
Test target: SMYD3 (Homo sapiens)
Assay details: SMYD3 biochemical assay (MTase-Glo, MAP3K2 peptide substrate)
Test settings: Table 3; MTase assay, MAP3K2 peptide substrate; read-out: IC50
Measured parameter: IC50 (nM)

Here's what some known entries look like.
{"Compound": "CCCOC(=O)N1CCN(C(=O)c2ccc3c(Cl)c4c(nc3c2)CC(c2ncccc2C)CC4)C[C@H]1C (some centres unmarked)", "Unit info": "nM", "IC50": 480}
{"Compound": "CCCOC(=O)N1CCN(C(=O)c2ccc3c(Cl)cc(-c4cnn(C5CCCC5)c4)nc3c2)CC1", "Unit info": "nM", "IC50": 60}
{"Compound": "CCCOC(=O)N1CCN(C(=O)c2ccc3c(Cl)cc(-c4cnn(C5CCCC5)c4)nc3c2)C[C@H]1C", "Unit info": "nM", "IC50": 22}
{"Compound": "CCCOC(=O)N1CCN(C(=O)c2ccc3c(Cl)c4c(nc3c2)CCCC4)C2(CC2)C1", "Unit info": "nM", "IC50": 8400}

P: CCCOC(=O)N1CCN(C(=O)c2ccc3c(Cl)cc(-c4ccc(-n5ccnc5)cc4)nc3c2)C[C@H]1C
Q: CCCOC(=O)N1CCN(C(=O)c2ccc3c(Cl)cc(-c4cc(F)c(CN)c(F)c4)nc3c2)CC1
For the two items P and Q , which reports the higher IC50 value? Output the label that corresponds to your choice.
Q

1: Cn1cc(C(=O)N2CCN(C(=O)c3ccc4c(Cl)cc(-c5ccccc5)nc4c3)CC2)nn1
2: CCCOC(=O)N1CCN(C(=O)c2ccc3c(Cl)c(C)c(-c4ccc(C#N)cc4)nc3c2)CC1
For the two items 1 and 2 , which reports the higher IC50 value? Output the label that corresponds to your choice.
2

A: CCCOC(=O)N1CCN(C(=O)c2ccc3c(Cl)cc(-c4ccc(C(C)(C)O)cc4)nc3c2)CC1
B: CCCOC(=O)N1CCN(C(=O)c2ccc3c(Cl)cc(-c4ccc5cn[nH]c5c4)nc3c2)CC1
C: CCCOC(=O)N1CCN(C(=O)c2ccc3c(Cl)cc(-c4ccc([N+](=O)[O-])cc4)nc3c2)CC1
Which order do these items take when sorted by rising IC50? List them. Put the labels in the requested order and write them down.
B, A, C

A: CCCOC(=O)N1CCN(C(=O)c2ccc3c(Cl)c4c(nc3c2)CC(c2ncccc2F)CC4)[C@H](C)C1 (some centres unmarked)
B: Cn1cc(-c2cc(Cl)c3ccc(C(=O)N4CCN(C(=O)OCCF)CC4)cc3n2)cn1
C: CCCOC(=O)N1CCN(C(=O)c2ccc3c(Cl)cc(-c4ccccc4)nc3c2)C[C@@H]1C
Which order do these items take when sorted by rising IC50? List them. Put the labels in the requested order and write them down.
C, A, B
(C: 130 nM, A: 340 nM, B: 2700 nM)

1: CCCOC(=O)N1CCN(C(=O)c2ccc3c(Cl)cc(-c4cnn(CC(F)(F)F)c4)nc3c2)CC1
2: C[C@@H]1CN(C(=O)c2ccc3c(Cl)cc(-c4ccn(C)c4)nc3c2)CCN1C(=O)c1cn(C2CC2)nn1
3: CCCOC(=O)N1CCN(C(=O)c2ccc3c(Cl)cc(-c4ccc(OC)c(CO)c4)nc3c2)CC1
4: CCCOC(=O)N1CCN(C(=O)c2ccc3c(Cl)c4c(nc3c2)CCC(CCN)C4)CC1 (centres unmarked)
5: CCCOC(=O)N1CCN(C(=O)c2ccc3c(Cl)cc(-c4ccc(C(C)(C)O)cc4)nc3c2)C[C@H]1C
Which order do these items take when sorted by rising IC50? List them. Put the labels in the requested order and write them down.
2, 5, 3, 1, 4
(2: 13 nM, 5: 67 nM, 3: 110 nM, 1: 210 nM, 4: 300 nM)

a: CCCOC(=O)N1CCN(C(=O)c2ccc3c(Cl)c(C)c(-c4ccccc4)nc3c2)[C@@H](C)C1
b: CCCOC(=O)N1CCN(C(=O)c2ccc3c(Cl)c(C)c(-c4ccc(C(N)=O)cc4)nc3c2)CC1
c: C[C@H]1CN(C(=O)OCCF)CCN1C(=O)c1ccc2c(Cl)cc(C3CC3)nc2c1
d: CCCOC(=O)N1CCN(C(=O)c2ccc3c(Cl)cc(-c4ccc(C(=O)NC5CC5)cc4)nc3c2)CC1
e: CCCOC(=O)N1CCN(C(=O)c2ccc3c(Cl)c4c(nc3c2)CC(c2ccnc(CN)c2)CC4)CC1 (centres unmarked)
Which order do these items take when sorted by rising IC50? List them. Put the labels in the requested order and write them down.
d, a, b, e, c
(d: 26 nM, a: 150 nM, b: 250 nM, e: 510 nM, c: 4900 nM)

1: CCCOC(=O)N1CCN(C(=O)c2ccc3c(Cl)c4c(nc3c2)CC(CC#N)CC4)CC1 (centres unmarked)
2: CCCOC(=O)N1CCN(C(=O)c2ccc3c(Cl)c4c(nc3c2)CC(c2ncccc2F)CC4)C[C@@H]1C (some centres unmarked)
3: CCCOC(=O)N1CCN(C(=O)c2ccc3c(Cl)cc(-c4ccc(C(=O)NC5CC5)c(F)c4)nc3c2)CC1
4: CCCOC(=O)N1CCN(C(=O)c2ccc3c(Cl)cc(-c4ccc(-c5cn[nH]c5)cc4)nc3c2)CC1
Given 4 compounds, produce a descending ranking by IC50. Put the labels in the requested order and write them down.
3, 2, 1, 4

a: CCCOC(=O)N1CCN(C(=O)c2ccc3c(Cl)cc(-c4ccc(O)c(CO)c4)nc3c2)C[C@@H]1C
b: CCCOC(=O)N1CCN(C(=O)c2ccc3c(Cl)cc(C4(C)CC4)nc3c2)C[C@H]1C
For the two items a and b , which reports the higher IC50 value? Output the label that corresponds to your choice.
b
(b: 380 nM, a: 140 nM)
